The reader will find reported MRT inf values listed item by item below.
test.name: Pharmacokinetics after PO dose in mice
Assay type: in vivo, Male C57BL/6 mice
condition.context: male, C57BL/6, mouse, in vivo; 10 mg/kg PO
parameter.measured: MRT inf (h)

1) CCCCCCC(C)(C)c1cc(O)c2c(c1)OC(C)(C)[C@@H]1CC=C(C(=O)NC(C)(C)CCO)C[C@@H]21 = 5.07
2) CCCCCCC(C)(C)c1cc(O)c2c(c1)OC(C)(C)[C@@H]1CC=C(C(=O)O)C[C@@H]21 [AJA, reference compound] = 3.42
3) CCCCCCC(C)(C)c1cc(O)c2c(c1)OC(C)(C)[C@@H]1CC=C(C(=O)NC[C@@H](O)CO)C[C@@H]21 = 6.4
4) CCCCCCC(C)(C)c1cc(O)c2c(c1)OC(C)(C)[C@@H]1CC=C(C(=O)OC(C)C)C[C@@H]21 = 6.2
5) CCCCCCC(C)(C)c1cc(O)c2c(c1)OC(C)(C)[C@@H]1CC=C(C(=O)NC[C@H](O)CO)C[C@@H]21 = 4.89
